meta.source: patent US20220177594A1

koff values, listed per item
biological target: Feline_OSMR_hlgG1_Fc (feline); experiment: SPR Biacore
Sequence (chain, as listed by the source limits assumed, form in doubt): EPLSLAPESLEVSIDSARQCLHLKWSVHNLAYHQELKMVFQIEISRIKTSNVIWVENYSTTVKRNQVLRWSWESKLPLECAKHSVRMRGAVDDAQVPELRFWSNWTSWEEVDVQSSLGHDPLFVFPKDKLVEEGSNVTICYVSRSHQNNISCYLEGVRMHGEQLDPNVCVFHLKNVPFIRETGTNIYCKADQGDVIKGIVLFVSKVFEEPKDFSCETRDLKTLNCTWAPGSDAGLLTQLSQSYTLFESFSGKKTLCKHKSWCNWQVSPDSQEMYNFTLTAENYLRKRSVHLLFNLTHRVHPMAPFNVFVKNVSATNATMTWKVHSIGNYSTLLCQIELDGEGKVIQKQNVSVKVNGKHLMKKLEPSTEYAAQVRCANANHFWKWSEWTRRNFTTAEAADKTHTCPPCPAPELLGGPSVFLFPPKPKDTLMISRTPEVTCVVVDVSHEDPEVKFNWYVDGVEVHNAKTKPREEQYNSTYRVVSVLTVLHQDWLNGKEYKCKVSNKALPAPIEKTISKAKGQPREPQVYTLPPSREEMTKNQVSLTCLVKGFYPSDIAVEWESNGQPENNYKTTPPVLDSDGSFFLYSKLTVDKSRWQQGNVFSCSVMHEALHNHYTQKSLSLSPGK
measurement label: koff (s⁻¹)

INSERT INTO assay_data (binder, measurement_label, value_reported) VALUES
  ('Mu_02D09_VH (SEQ ID NO: 31)_D31A (antibody, V domains shown) VH: EVQLVESGGGLVKPGGSLTLSCAASGFTFSAYGMHWLRQAPEKGLEWVAYISSGSRAVFFADTVKGRFTISRDNAKNTLFLQMTSLRSDDTAMYYCARDRYDGRGFAYWGQGTLVTVSA VL: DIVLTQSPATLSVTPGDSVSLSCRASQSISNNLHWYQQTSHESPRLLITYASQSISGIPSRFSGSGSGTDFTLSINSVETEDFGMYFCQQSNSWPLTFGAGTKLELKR', 'koff', 0.000872),
  ('Mu_10F07_VL (SEQ ID NO: 41)_Y50A (antibody, V domains shown) VH: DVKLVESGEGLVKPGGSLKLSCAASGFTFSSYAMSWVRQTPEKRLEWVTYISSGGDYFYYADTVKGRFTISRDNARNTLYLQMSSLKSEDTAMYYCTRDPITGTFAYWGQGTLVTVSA VL: DIQMTQTTSSLSASLGDRVTISCRASQDITNYLNWYQQKPDGTVKLLIYATSTLHSGVPSRFSGSGSGTDFSLTISNLEQEDIATYFCQQGHMLPWTFGGGTKLEIKR', 'koff', '1.73e-06');
